# assay: Extractable percent of unreacted silicone, second evaluation (cure rate with active agents)
# Type: physicochemical
# condition.notes: active agent added to Dispersion 1 aged 1 week at 45° C.; slope of extractable plot; lower values = higher reactivity
Please provide measured Cure Rate After 3 Min. (%) for the entries that follow.
One number for each entry, in %.

Please review the entries below; each comes with its answer.
1) CC(C)(CO)[C@@H](O)C(=O)NCCCO
18.4
2) O=C(O)c1ccccc1O
36.5

# query: Cure Rate After 3 Min. (%) of entry CCN(CC)CC(=O)Nc1c(C)cccc1C 21.1

* * *

# assay: Extractable percent of unreacted silicone, second evaluation (cure rate with active agents)
# Format: physicochemical
# condition.notes: active agent added to Dispersion 1 aged 1 week at 45° C.; slope of extractable plot; lower values = higher reactivity
readout: Cure Rate After 120 Min. (%)
Give bare numbers, in %.

1. CC(C)(CO)[C@@H](O)C(=O)NCCCO
4.8
2. CCN(CC)CC(=O)Nc1c(C)cccc1C
4.9

# query: Cure Rate After 120 Min. (%) of entry Cn1c(=O)c2c(ncn2C)n(C)c1=O 8.5
